The following compounds are shown together with reported concentration at 0.5 h values.
- PROTOCOL: Pharmacokinetics in dogs (plasma concentration by HPLC)
- Type: in vivo, dog (beagle)
- RECORDED_CONDITIONS: dog, plasma, po, 2 mg/kg/day, Dog 1, day 5, 0.5 h; 2 mg/kg/day PO
State just the number; it will be interpreted in ng/mL.

c1cc(Nc2nccc(-c3cccs3)n2)cc(OCCn2ccnc2)c1: 339

Proceed to the following item.
Record Cc1cc(Nc2nccc(-c3ccncc3)n2)ccc1N.Cl.Cl [Compound 2, reference compound] , field concentration at 0.5 h: 120

* * *

- PROTOCOL: Pharmacokinetics in dogs (plasma concentration by HPLC)
- Assay type: in vivo, dog (beagle)
- RECORDED_CONDITIONS: dog, plasma, po, 2 mg/kg/day, Mean of 4 dogs, day 1, 2 h; 2 mg/kg/day PO
RECORDED_METRIC: concentration at 2 h (ng/mL)
Number only, in ng/mL; omit the unit.

Cc1cc(Nc2nccc(-c3ccncc3)n2)ccc1N.Cl.Cl [Compound 2, reference compound]: 74

Now take the following compound into account.
Entry c1cc(Nc2nccc(-c3cccs3)n2)cc(OCCn2ccnc2)c1 — recorded concentration at 2 h = 318
